The origin of these recorded values is ChEMBL document CHEMBL4049399.

Tested on: MDA-MB-468
methodNotes: Antiproliferative activity against human MDA-MB-468 cells assessed as reduction in cell viability after 5 to 7 days by CellTiter 96 aqueous solution assay
Assay type: functional, cell-based
quantityName: pIC50
Reminder that pIC50 means the negative base-10 logarithm of the concentration expressed in mol/L.

Solved cases (3 shown):
> print(dat)
                            molecularstring  quantityname  assayvalue
1  COc1cc(N2CCOCC2)ccc1Nc1nc(Nc2ccccc2S(=O)(=O)C(C)C)c2cc[nH]c2n1         pIC50        6.49
2  COc1cc(N2CCC(O)CC2)ccc1Nc1nc(Nc2ccccc2S(=O)(=O)C(C)C)c2cc[nH]c2n1         pIC50        6.72
3  COc1ccccc1Nc1nc(Nc2ccccc2S(=O)(=O)C(C)C)c2cc[nH]c2n1         pIC50        5.80

IN: Please report the measured pIC50 for COc1cc(N2CCC(O)CC2)ccc1Nc1cc(Nc2ccccc2S(=O)(=O)C(C)C)c2cc[nH]c2n1 tested on MDA-MB-468.
OUT: 5.73
